Give IC50 for every item shown.
- Target entity: various mutants of kinase EGFR (BaF3 cell lines stably transfected with kinase) (Homo sapiens)
- Construct: other: BaF3 cells stably transfected with EGFR Δ19Del; MTS, 48 h; other: BaF3 cell line stably transfected with EGFR Δ19Del
- Method description: Growth inhibitory activity of compounds on BaF3 cell lines stably transfected with kinase (MTS, 48 h)
- Type: cell-based
- Assay conditions: BaF3 cells stably transfected with EGFR Δ19Del, read-out: IC50, growth inhibition, Δ19Del

CCc1cc(Nc2ncc(Br)c(Nc3ccc4nccnc4c3N(C)S(=O)(=O)C3CC3)n2)c(OC)cc1N1CCC(N(C)C)C1 (stereo not drawn) [Compound I-108]	0.05 to 0.5 µM
CCc1cc(Nc2ncc(Cl)c(Nc3ccc4nccnc4c3N(C)S(C)(=O)=O)n2)c(OC(F)(F)F)cc1N1CCC(N2CCN(C)CC2)CC1 [Compound I-22]	0.05 to 0.5 µM

Query: Would you kindly share the measured IC50 for COc1cc(N2CCC(N(C)C)C2)c(C)cc1Nc1ncc(Cl)c(Nc2ccc3nccnc3c2N(C)S(C)(=O)=O)n1 (stereo not drawn) [Compound I-173] ?
Result: ≤ 0.05 µM

====

- Target entity: various mutants of kinase EGFR (BaF3 cell lines stably transfected with kinase) (Homo sapiens, UniProt P00533, L858R)
- Construct: expressed in transfected cells; host or cells: BaF3
- Sequence (P00533 25-1210 L858R): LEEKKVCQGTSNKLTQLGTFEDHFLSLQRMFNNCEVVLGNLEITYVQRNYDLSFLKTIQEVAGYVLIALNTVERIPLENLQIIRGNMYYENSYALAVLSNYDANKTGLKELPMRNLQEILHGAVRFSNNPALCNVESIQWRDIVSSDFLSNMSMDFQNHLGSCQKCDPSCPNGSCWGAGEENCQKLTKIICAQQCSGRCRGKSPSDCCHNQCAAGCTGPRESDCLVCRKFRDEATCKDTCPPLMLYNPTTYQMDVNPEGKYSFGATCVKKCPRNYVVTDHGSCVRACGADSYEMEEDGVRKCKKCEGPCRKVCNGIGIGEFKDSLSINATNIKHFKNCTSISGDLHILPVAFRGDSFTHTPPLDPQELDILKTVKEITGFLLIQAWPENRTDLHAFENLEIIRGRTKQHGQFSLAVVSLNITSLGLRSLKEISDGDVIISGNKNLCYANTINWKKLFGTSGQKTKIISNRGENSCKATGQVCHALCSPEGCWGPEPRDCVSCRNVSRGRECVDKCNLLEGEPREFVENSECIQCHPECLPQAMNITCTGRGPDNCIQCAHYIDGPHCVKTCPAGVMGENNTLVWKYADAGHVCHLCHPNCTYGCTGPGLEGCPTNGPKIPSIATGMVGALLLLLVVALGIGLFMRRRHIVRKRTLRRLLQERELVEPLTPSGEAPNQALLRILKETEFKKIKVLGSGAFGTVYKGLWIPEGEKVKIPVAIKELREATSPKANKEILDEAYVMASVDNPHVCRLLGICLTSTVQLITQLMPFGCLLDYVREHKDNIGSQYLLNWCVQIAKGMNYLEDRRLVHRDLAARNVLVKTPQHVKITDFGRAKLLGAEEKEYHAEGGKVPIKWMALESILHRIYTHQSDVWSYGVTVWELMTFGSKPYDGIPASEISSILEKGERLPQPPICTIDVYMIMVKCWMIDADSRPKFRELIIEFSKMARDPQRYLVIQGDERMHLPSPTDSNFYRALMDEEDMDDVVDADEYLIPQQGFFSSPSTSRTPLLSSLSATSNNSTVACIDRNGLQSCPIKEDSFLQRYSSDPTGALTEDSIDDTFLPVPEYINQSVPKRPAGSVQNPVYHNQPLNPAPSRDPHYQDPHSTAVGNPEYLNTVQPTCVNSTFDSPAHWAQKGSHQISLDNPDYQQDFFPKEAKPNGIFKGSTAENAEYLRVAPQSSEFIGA
- Method description: Growth inhibitory activity of compounds on BaF3 cell lines stably transfected with kinase (MTS, 48 h)
- Assay type: cell-based
- Assay conditions: BaF3 cell line stably transfected with EGFR L858R, read-out: L858R growth inhibitory activity IC50
pIC50: −log10 of the molar value.
Give pIC50 for every item shown.

Recorded pIC50, per entry:
CCOc1cnc(Nc2cc(CC)c(N3CCC(N4CCN(C)CC4)CC3)cc2OC)nc1Nc1ccc2nccnc2c1N(C)S(C)(=O)=O [Compound I-337]	6.30 to 7.30
COc1ccc(N2CCC(O)CC2)cc1Nc1ncc(Br)c(Nc2ccc3nccnc3c2N(C2CC2)S(C)(=O)=O)n1 [Compound I-380]	≥ 7.30
CCc1cnc(Nc2cc(F)c(N3CCC(N4CCN(C)CC4)CC3)c(F)c2)nc1Nc1ccc2nccnc2c1N(C)S(C)(=O)=O [Compound I-349]	≥ 7.30
CCc1cc(Nc2ncc(Br)c(Nc3ccc4nccnc4c3N(C)S(C)(=O)=O)n2)c(OC)cc1F [Compound I-389]	5.60 to 6.30

I need pIC50 for every entry listed below, if you could help.
1. CCc1cc(Nc2ncc(Cl)c(Nc3ccc4nccnc4c3N(C)S(C)(=O)=O)n2)c(OC)cc1C(=O)N1CCC(N2CCN(C)CC2)CC1 [Compound I-358]
2. CCc1cc(Nc2ncc(C(C)C)c(Nc3ccc4nccnc4c3N(C)S(C)(=O)=O)n2)c(OC)cc1N1CCN(C)CC1 [Compound I-329]
3. COc1nc(N2CCC(N3CCN(C)CC3)CC2)ccc1Nc1nc(Nc2ccc3nccnc3c2N(C)S(C)(=O)=O)c2sccc2n1 [II-1-4]

Result:
6.30 to 7.30
6.30 to 7.30
5.60 to 6.30

====

- Target entity: various mutants of kinase EGFR (BaF3 cell lines stably transfected with kinase) (Homo sapiens, UniProt P00533, L858R)
- Construct: expressed in transfected cells; host or cells: BaF3
- Method description: Growth inhibitory activity of compounds on BaF3 cell lines stably transfected with kinase (MTS, 48 h)
- Assay type: cell-based
- Assay conditions: BaF3 cells stably transfected with EGFR L858R, read-out: IC50, growth inhibition, L858R
Outcome measure: IC50

Recorded IC50, per entry:
COc1cc(N2CCC(N(C)C)C2)c(C)cc1Nc1ncc(C(F)(F)F)c(Nc2ccc3nccnc3c2N(C)S(C)(=O)=O)n1 (stereo not shown) [Compound I-209]	≤ 50 nM
COc1cc(N2CCC(N3CCN(C)CC3)CC2)c(CC2CC2)cc1Nc1ncc(Br)c(Nc2ccc3nccnc3c2N(C)S(=O)(=O)C(F)(F)F)n1 [Compound I-259]	500 to 2500 nM

I need IC50 for every entry listed below, if you could help.
1. COc1cc(N2CCC(N3CCN(C)CC3)CC2)c(C)cc1Nc1ncc(Cl)c(Nc2ccc3nccnc3c2N(C)S(=O)(=O)C(F)(F)F)n1 [Compound I-129]
2. CN1CCN(Cc2cccc(Nc3ncc(Br)c(Nc4ccc5nccnc5c4N(C)S(C)(=O)=O)n3)c2)CC1 [Compound I-84]

Result:
500 to 2500 nM
≤ 50 nM

I need IC50 for every entry listed below, if you could help.
1. COc1cc(N2CCOCC2)ccc1Nc1ncc(Br)c(Nc2ccc3nccnc3c2N(C)S(C)(=O)=O)n1 [Compound I-45]
2. CCc1cc(Nc2ncc(OC)c(Nc3ccc4nccnc4c3N(C)S(C)(=O)=O)n2)c(OC(F)(F)F)cc1N1CCC(N2CCN(C)CC2)CC1 [Compound I-281]
3. COc1cc(N2CCC(N3CCN(C)CC3)CC2)c(C)cc1Nc1ncc(Br)c(Nc2ccc3nccnc3c2N(C)S(=O)(=O)C(C)C)n1 [Compound I-134]
4. CCc1cc(Nc2ncc([N+](=O)[O-])c(Nc3ccc4nccnc4c3N(C)S(C)(=O)=O)n2)c(OC)cc1N1CCC(N(C)C)CC1 [Compound I-193]
5. CCc1cc(Nc2ncc(F)c(Nc3ccc4nccnc4c3N(C)S(C)(=O)=O)n2)c(OC)nc1N1CCC(N2CCN(C)CC2)CC1 [Compound I-177]
6. C=Cc1cc(Nc2ncc(Br)c(Nc3ccc4nccnc4c3N(C)S(C)(=O)=O)n2)c(OC(F)(F)F)cc1N1CCC(N2CCN(C)CC2)CC1 [Compound I-9]
7. CCc1cc(Nc2ncc(Br)c(Nc3ccc4nccnc4c3N(C3CC3)S(C)(=O)=O)n2)c(OC(F)(F)F)cc1N1CCC(N2CCN(C)CC2)CC1 [Compound I-156]

Result:
1: 50 to 500 nM; 2: ≤ 50 nM; 3: 50 to 500 nM; 4: ≤ 50 nM; 5: ≤ 50 nM; 6: ≤ 50 nM; 7: 50 to 500 nM

I need IC50 for every entry listed below, if you could help.
1. COc1cc(N2CCC(N3CCN(C)CC3)CC2)c(CC2CC2)cc1Nc1ncc(F)c(Nc2ccc3nccnc3c2N(C)S(C)(=O)=O)n1 [Compound I-181]
2. CCS(=O)(=O)N(C)c1c(Nc2nc(Nc3cc(CC4CC4)c(N4CCC(N5CCN(C)CC5)CC4)cc3OC)ncc2Cl)ccc2nccnc12 [Compound I-235]
3. CCc1cc(Nc2ncc(Cl)c(Nc3ccc4nccnc4c3N(C)S(=O)(=O)CC)n2)c(OC)nc1N1CCC(N2CCN(C)CC2)CC1 [Compound I-234]
4. CCc1cc(Nc2ncc(Br)c(Nc3ccc4nccnc4c3N(C)S(=O)(=O)C(F)(F)F)n2)c(OC)cc1N1CCC(N(C)C)CC1 [Compound I-127]
5. COc1cc(N2CCC(N3CCN(C)CC3)CC2)c(Cc2ccccc2)cc1Nc1ncc(C(F)(F)F)c(Nc2ccc3nccnc3c2N(C)S(C)(=O)=O)n1 [Compound I-204]

Result:
1: ≤ 50 nM; 2: 50 to 500 nM; 3: 50 to 500 nM; 4: 500 to 2500 nM; 5: 500 to 2500 nM

I need IC50 for every entry listed below, if you could help.
1. C=Cc1cc(Nc2ncc(Br)c(Nc3ccc4nccnc4c3N(C)S(=O)(=O)C3CC3)n2)c(OC(F)(F)F)cc1N1CCC(N2CCN(C)CC2)CC1 [Compound I-219]
2. COc1cc(N2CCN(C)CC2)c(C)cc1Nc1ncc(Cl)c(Nc2ccc3nccnc3c2N(C)S(=O)(=O)C(F)(F)F)n1 [Compound I-266]
3. CCc1cc(Nc2ncc(Cl)c(Nc3ccc4nccnc4c3N(C)S(=O)(=O)C(C)C)n2)c(OC)cc1N1CCC(N(C)C)CC1 [Compound I-142]

Result:
1: 50 to 500 nM; 2: 500 to 2500 nM; 3: ≤ 50 nM

====

- Target entity: various mutants of kinase EGFR (BaF3 cell lines stably transfected with kinase) (Homo sapiens, UniProt P00533, T790M/C797S, form not given)
- Construct: other: BaF3 cells stably transfected with EGFR Δ19Del/T790M/C797S; MTS, 48; other: BaF3 cell line stably transfected with EGFR Δ19Del/T790M/C7
- Sequence (P00533 with tags, fused parts or gaps DEL746-750/T790M/C797S, form open): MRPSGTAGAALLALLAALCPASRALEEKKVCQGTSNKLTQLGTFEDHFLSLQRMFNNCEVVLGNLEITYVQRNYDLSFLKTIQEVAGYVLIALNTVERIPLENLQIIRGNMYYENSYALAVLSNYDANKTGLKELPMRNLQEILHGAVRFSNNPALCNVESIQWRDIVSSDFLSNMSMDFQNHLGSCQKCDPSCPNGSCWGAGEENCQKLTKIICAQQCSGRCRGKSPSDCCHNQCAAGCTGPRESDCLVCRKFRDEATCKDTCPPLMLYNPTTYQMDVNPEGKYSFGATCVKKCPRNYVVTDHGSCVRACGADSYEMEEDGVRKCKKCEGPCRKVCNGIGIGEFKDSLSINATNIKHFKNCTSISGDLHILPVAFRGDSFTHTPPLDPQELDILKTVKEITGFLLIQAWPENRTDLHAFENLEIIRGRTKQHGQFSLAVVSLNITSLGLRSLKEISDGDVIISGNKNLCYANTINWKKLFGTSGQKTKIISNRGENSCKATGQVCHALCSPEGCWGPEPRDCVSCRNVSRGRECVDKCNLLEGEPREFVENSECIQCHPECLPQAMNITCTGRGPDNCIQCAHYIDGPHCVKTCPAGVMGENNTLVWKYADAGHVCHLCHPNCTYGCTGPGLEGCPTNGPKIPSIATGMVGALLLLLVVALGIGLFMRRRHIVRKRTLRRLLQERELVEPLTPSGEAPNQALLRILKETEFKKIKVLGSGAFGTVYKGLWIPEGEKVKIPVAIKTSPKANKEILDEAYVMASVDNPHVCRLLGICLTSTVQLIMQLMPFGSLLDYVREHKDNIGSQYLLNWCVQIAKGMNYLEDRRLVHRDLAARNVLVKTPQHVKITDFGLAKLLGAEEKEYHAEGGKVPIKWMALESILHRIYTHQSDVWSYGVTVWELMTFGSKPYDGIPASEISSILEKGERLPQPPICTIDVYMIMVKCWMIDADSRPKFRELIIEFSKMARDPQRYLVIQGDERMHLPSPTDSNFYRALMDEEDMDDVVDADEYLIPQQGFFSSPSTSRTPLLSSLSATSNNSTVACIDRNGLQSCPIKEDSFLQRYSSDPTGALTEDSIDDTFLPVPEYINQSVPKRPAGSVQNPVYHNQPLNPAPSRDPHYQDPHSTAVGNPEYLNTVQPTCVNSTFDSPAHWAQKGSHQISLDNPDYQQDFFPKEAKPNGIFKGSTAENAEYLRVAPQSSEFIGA
- Method description: Growth inhibitory activity of compounds on BaF3 cell lines stably transfected with kinase (MTS, 48 h)
- Type: cell-based
- Assay conditions: BaF3 cell line stably transfected with EGFR Δ19Del/T790M/C797S, read-out: Δ19Del/T790M/ C797S growth inhibitory activity IC50
Outcome measure: IC50

I need IC50 for every entry listed below, if you could help.
1. CCc1cc(Nc2nc(Nc3ccc4nccnc4c3N(C)S(C)(=O)=O)c3cc[nH]c3n2)c(OC(F)(F)F)cc1N1CCC(N2CCN(C)CC2)CC1
2. CCc1cc(Nc2ncc(CC)c(Nc3ccc4nccnc4c3N(C)S(C)(=O)=O)n2)c(OC)cc1N1CCC(N2CCN(C)CC2)CC1
3. COc1cc(N2CCC(N3CCN(C)CC3)CC2)c(C)cc1Nc1ncc(C(C)C)c(Nc2ccc3nccnc3c2N(C)S(C)(=O)=O)n1
4. C=Cc1cc(Nc2nc(Nc3ccc4nccnc4c3N(C)S(C)(=O)=O)c3sccc3n2)c(OC(F)(F)F)cc1N1CCC(N2CCN(C)CC2)CC1
5. CCc1cc(Nc2ncc(CC)c(Nc3ccc4nccnc4c3N(C)S(C)(=O)=O)n2)c(OC)cc1C(=O)N1CCC(N2CCN(C)CC2)CC1
6. COc1ccc(N2CCC(N3CCCC3)CC2)cc1Nc1ncc(Br)c(Nc2ccc3nccnc3c2N(C)S(C)(=O)=O)n1

Result:
["≤ 50 nM", "≤ 50 nM", "50 to 500 nM", "≤ 50 nM", "50 to 500 nM", "50 to 500 nM"]
